src = patent US5071875A

- system_name: melatonin receptor (Oryctolagus cuniculus, UniProt G1SUP2)
- Construct: Typically, the rabbit retina tissues preincubation with [^3 H]-dopamine for 10 minutes
- Sequence (G1SUP2 1-362): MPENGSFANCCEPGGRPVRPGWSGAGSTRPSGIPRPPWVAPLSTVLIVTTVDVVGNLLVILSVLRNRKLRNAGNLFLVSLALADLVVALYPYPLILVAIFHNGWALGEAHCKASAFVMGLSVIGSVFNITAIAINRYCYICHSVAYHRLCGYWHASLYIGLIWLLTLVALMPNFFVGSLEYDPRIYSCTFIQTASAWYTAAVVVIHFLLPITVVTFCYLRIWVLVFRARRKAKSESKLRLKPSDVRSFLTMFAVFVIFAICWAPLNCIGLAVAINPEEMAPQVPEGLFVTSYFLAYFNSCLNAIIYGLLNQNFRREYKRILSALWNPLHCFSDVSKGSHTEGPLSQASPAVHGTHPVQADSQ
- experiment_summary: Inhibition of calcium-dependent [3H]dopamine release from rabbit retina (melatonin agonist assay)
- test_conditions: compound added before S2; S-sulpiride 0.1 μM present
pIC50: −log10 of the molar value.
List of pIC50 values.

# molecule, comparative_sign, pIC50
rows = [
    ("CC(=O)NC1CC(Cc2ccccc2)c2ccccc2C1=O (stereo not shown)", "=", 7.80),
    ("CCC(=O)NC1Cc2ccccc2C(Cc2ccccc2)C1 (stereo not shown)", "=", 7.89),
    ("CC(=O)NC1Cc2ccccc2C(c2ccccc2)C1 (stereo not shown)", "<", 6.00),
    ("CC(=O)NC1Cc2ccccc2C(Cc2ccccc2)C1 (stereo not shown)", "=", 8.40),
]
